# method-summary: Toxicity liver stage against HepG2, at 10uM
# Type: cell-based
# Parameters: test concentration 10 uM, cell line HepG2-A16-CD81EGFP
# stated-conditions: human, HepG2-A16-CD81EGFP cells; read-out: INHIBITION
Entries annotated with measured cytotoxicity at 10 µM
A number alone suffices; assume %.

The cases that follow already have their cytotoxicity at 10 µM on record.
{"columns": ["compound", "quantity", "readout-value"],
 "data": [
  ["COc1cccc(COC(C)C(=O)NC2CCN(CC(N)=O)CC2)c1 (stereo unspecified)", "cytotoxicity at 10 µM", 0.234],
  ["Cc1nn(C)c(C)c1CCC(=O)N1CCc2sccc2C1", "cytotoxicity at 10 µM", 16.3],
  ["O[C@H]1CC[C@@H](Cc2cc(-c3ccc(F)cc3)on2)O[C@@H]1CNCC1CC1", "cytotoxicity at 10 µM", -6.4],
  ["CN(C)CCOCc1nnc2n1CCN(Cc1ccc(F)cc1)CC2", "cytotoxicity at 10 µM", -5.63],
  ["Cc1n[nH]c(C)c1NC(=O)CN1CCc2c(nc(C(C)C)n2C)C1", "cytotoxicity at 10 µM", -5.68]
]}

--- query ---
Asked: Request the reported cytotoxicity at 10 µM associated with COCCC1(CNC(=O)NCC2CCC2)CCC1
Given back: -10.1

* * *

Listed here are compounds together with their documented cytotoxicity at 10 µM.
# method-summary: Toxicity liver stage against HepG2, at 10uM
# Type: cell-based
# Parameters: test concentration 10 uM, cell line HepG2-A16-CD81EGFP
# stated-conditions: human, HepG2-A16-CD81EGFP cells; read-out: INHIBITION
Note: unit % is implicit; provide only the numeric part.

{"columns": ["compound", "cytotoxicity at 10 µM [%]"],
 "data": [
  ["CCN1CCC(CC(=O)NCC(O)c2cccc(OC)c2)CC1 (configuration not stated)", -6.87],
  ["N#Cc1ccc(Nc2nc3c(s2)C(=O)CN(CC2CC2)C3)cc1", -5.28],
  ["COc1c(C2CCCN2C(=O)c2cccnc2N(C)C)c(C)nn1C (configuration not stated)", -7.62],
  ["CCOC1CCCN(C(=O)c2[nH]nc(C3CC3)c2Br)C1 (configuration not stated)", -5.4],
  ["CCOCCCNC(=O)C1(C)CCC(=O)N1c1ccccc1F (configuration not stated)", -4.42],
  ["CC(C)c1noc(CCCC(=O)N2CCN(S(C)(=O)=O)CC2)n1", -15.7],
  ["COc1ccc2nnc(CCCC(=O)NCCc3ccccn3)n2n1", -9.49],
  ["O=C(N1CCCC1)N1CCC(c2nccn2Cc2cscn2)CC1", 4.8],
  ["CC(C)NC(=O)N1CCC2(CC(=O)N(c3ccccc3)C2)C1 (configuration not stated)", -2.59],
  ["CN(C)C1CCC2(CCN(Cc3cccnc3)CC2)c2ccccc21 (configuration not stated)", 3.15]
]}

Asked: Fill blank: measured cytotoxicity at 10 µM of the compound Cc1c(C(=O)N2CCCC(O)(CN(C)C)CC2)c2cc(O)ccc2n1C (configuration not stated) is ____.
Given back: -119

Asked: Lookup CC1CN(c2ncccc2C(=O)Nc2cccc3c2CCCC3)CCN1 (configuration not stated)
Given back: 4.65

Asked: Next record, please: Cc1nc(-c2ccoc2)n(CC(=O)NCC(C)C)c1C
Given back: -1.49

Asked: Try this compound next: CCc1nc(CN2CCCN(C(=O)c3c(C)noc3C)CC2)cs1
Given back: 1.74

Asked: Note, next up: O=C(c1cc(C2CC2)[nH]n1)N1CCN(Cc2ccc3c(c2)OCO3)CC1
Given back: -2.32

Asked: Also Cc1n[nH]c(SCC(=O)NC(c2ccccn2)C(C)C)n1 (configuration not stated) , if possible.
Given back: -2.62

Asked: Further, for Cc1nc(CN2CCC3(CCN(Cc4cnn(C)c4)CC3)C2=O)cs1 ?
Given back: 2.34

* * *

In this section, each of the compounds is paired with its reported cytotoxicity at 10 µM.
# method-summary: Toxicity liver stage against HepG2, at 10uM
# Type: cell-based
# Design: test concentration 10 uM, cell line HepG2-A16-CD81EGFP
# stated-conditions: human, HepG2-A16-CD81EGFP cells; read-out: INHIBITION
Provide the reading as a plain figure in %.

Here's what some known entries look like.
{"columns": ["compound", "readout-value"],
 "data": [
  ["COc1ncccc1CNC(=O)C1=NN(c2ccccc2)C(=O)CN1", 2.54],
  ["N#CCCSc1nnc(Cc2ccccc2F)o1", -11.7],
  ["Cc1csc(C2CCCN(C(=O)c3cc(Cl)c[nH]3)C2)n1 (stereo unspecified)", -8.21],
  ["CC(Oc1cccc(F)c1)C(=O)N(CC(N)=O)C1CCCC1 (stereo unspecified)", -1.21],
  ["CC(C)CCn1cc(C(C(=O)O)N2CCC(c3ccncc3)CC2)cn1 (stereo unspecified)", 3.34],
  ["Cc1ncc2c(n1)CN(Cc1nc3c(F)cccc3[nH]1)CC2", -4.74],
  ["O=C1NC[C@H]2CN(Cc3ccnc4ccccc34)CCN12", -3.66],
  ["Cc1occc1C(=O)N1CCCN(Cc2cnn(C(C)C)c2)CC1", -5.62]
]}

Consider now this further compound.
Asked: Sample CCOC(=O)[C@]12CCCN(Cc3nccs3)C[C@H]1CN(C(C)=O)C2 — what was its cytotoxicity at 10 µM?
Given back: -2.99

* * *

# method-summary: Toxicity liver stage against HepG2, at 10uM
# Assay type: cell-based
# Parameters: test concentration 10 uM, cell line HepG2-A16-CD81EGFP
# stated-conditions: human, HepG2-A16-CD81EGFP cells; read-out: INHIBITION
Overview of reported cytotoxicity at 10 µM across a group of molecules:
State just the number; it will be interpreted in %.

Worked cases, answers included:
{"columns": ["molecule", "cytotoxicity at 10 µM, %"],
 "data": [
  ["CN1C(=O)[C@@H]2CC[C@H]1CN(C(=O)c1sccc1S(N)(=O)=O)C2", 5.6],
  ["COCCCC1CCCCN1Cc1cc(F)ccc1-n1cccn1 (stereo unspecified)", -3.13],
  ["CCOC(=O)N1CCN(C(=O)C2Cc3ccccc3CN2C)CC1 (stereo unspecified)", -19.2],
  ["Cc1cc(C(=O)N2C[C@@H](CN(C)CCN(C)C)[C@@H](CO)C2)nc(C)n1", 7.01],
  ["CCOC(C)C(=O)NCc1ccc(N(C)C)cc1 (stereo unspecified)", -13.3],
  ["CC(C)c1cc(NC(=O)Cn2ccc(=O)c3ccccc32)[nH]n1", -146]
]}

Asked: cytotoxicity at 10 µM lookup needed for CCOCCCNC(=O)C1CCC(=O)N(CCc2ccc(Cl)cc2)C1 (stereo unspecified) , thanks.
Given back: -0.591

Asked: Please do the same for CC(C)(C)c1cnc(CN2CCC(c3ccnn3CCO)CC2)o1 as well.
Given back: -3.15

* * *

# reported cytotoxicity at 10 µM; entries follow
# method-summary: Toxicity liver stage against HepG2, at 10uM
# Assay type: cell-based
# Design: test concentration 10 uM, cell line HepG2-A16-CD81EGFP
# stated-conditions: human, HepG2-A16-CD81EGFP cells; read-out: INHIBITION
Give just the numeric value; % need not be written.

Asked: Please look up its cytotoxicity at 10 µM: CO[C@@H]1CC[C@H]2[C@H]1OCCN2C(=O)C1CCOCC1
Given back: 3.33

Asked: Further, for Cc1nc(CN2CCC3(CCCN(Cc4cccnc4)C3)C2=O)cs1 (stereo unspecified) ?
Given back: 20.8

Asked: Same read-out for CCC(=O)N1CCC(c2cncc(Oc3cccnc3)n2)CC1 ?
Given back: -4.69

Asked: For O=C(NCC(F)(F)F)C1CSCN1S(=O)(=O)c1ccccc1F (stereo unspecified) then?
Given back: -16.3

Asked: Record: COc1ccc2c(c1)CCCN(C(=O)NCC1CCCO1)C2 (stereo unspecified)
Given back: 1.06

Asked: Same thing, different compound: CNC(=O)[C@H]1C[C@H]2CN(C(=O)NC(C)C)C[C@@H]1O2
Given back: -99.8

Asked: Follow-up item: Cn1ncc2c(NCC(=O)N3CCNCC3)nc(C(C)(C)C)nc21
Given back: -10.6

Asked: Same for COc1c(CNC2CCCN(c3ncccn3)C2)c(C(C)C)nn1C (stereo unspecified)
Given back: -9.94

Asked: What do you get for CNC(=O)Cn1ccc2ccc(NC(=O)C(C)C)cc21 ?
Given back: 0.153

Asked: What do you have for CCCc1noc(CN2CCC(NC(=O)c3ccc(C)s3)CC2)n1 ?
Given back: -5.32

* * *

# method-summary: Toxicity liver stage against HepG2, at 10uM
# Format: cell-based
# Parameters: test concentration 10 uM, cell line HepG2-A16-CD81EGFP
# stated-conditions: human, HepG2-A16-CD81EGFP cells; read-out: INHIBITION
quantity: cytotoxicity at 10 µM
Write your answer as a measured quantity: the number, then the unit.

{"columns": ["compound", "readout-value"],
 "data": [
  ["CS(=O)(=O)N1CCN(c2ccnc(N3CCCC3)n2)CC1", "-1.26%"],
  ["CCc1c(C)nc2n(c1=O)CC(C(=O)Nc1ccccc1F)CS2 (stereo unspecified)", "1.57%"],
  ["CN(C)c1nccnc1C1CCCN(c2cnccn2)C1 (stereo unspecified)", "-4.92%"],
  ["CCNC(=O)CN1CCc2c(Br)ccc(F)c2C1", "4.34%"],
  ["CC(C)(C)OC(=O)N1CC(=O)N(CCc2ccccc2)CC(O)C1 (stereo unspecified)", "-12.9%"]
]}

Asked: Request the reported cytotoxicity at 10 µM associated with Cc1ccc(S(=O)(=O)N2C[C@H]3C[C@H](NC(=O)c4cnn(C)c4)[C@H]3C2)cc1
Given back: 76.4%

Asked: Continue with CC(=O)N1CCC(Cc2cccc(-c3c(C)noc3C)n2)C1 (stereo unspecified)
Given back: 0.664%

Asked: Now the compound O=C(c1ccc(S(=O)(=O)NCCc2ccccn2)cc1)N1CCCC1
Given back: 13.2%

Asked: Thanks! And CN(Cc1cc(-c2cccnc2)no1)C(=O)c1cccn1C ?
Given back: -1.1%

Asked: Continue with CC(C)N(CCNc1nc(C2CCCC2)nc2c1cnn2C)C(C)C
Given back: 5.29%

Asked: Repeat with CC(CN1CCCC1=O)NC(=O)Nc1cccnc1-n1cccn1 (stereo unspecified)
Given back: -170%
